These measurements were taken from patent US8957056B2.

experiment: Chamber cell migration assay, preliminary (Table 3); format: cell-based; details: 36 h, tested concentrations 200, 100, 50, 25, 10 μM
pIC50: −log10 of the molar value.

>  <Molecule>
CO[C@H]1/C=C/CC/C=C/C(=O)OC([C@H](C)C(=O)CCCC2CC(=O)NC(=O)C2)/C(C)=C\[C@@H](C)[C@@H]1O (stereo partly shown)

>  <pIC50>
3.70

$$$$

----------
test: Mouse blood plasma stability; conditions: mouse, plasma
Value Type: metabolic stability in mouse blood plasma

>  <Compound>
COC1C=CCCCCC(=O)OC(C(C)C)C(C)=CC(C)C1O [Compound 65, (S)-Isopropyl Macrolactone]

>  <Reading>
no sign of degradation

$$$$
>  <Compound>
COC1C=CCCCCC(=O)OC(C(C)C)C(C)=CC(C)C1O [Compound 68, (R)-Isopropyl Macrolactone]

>  <Reading>
no sign of degradation

$$$$
